Assay: NCI Yeast Anticancer Drug Screen. Data for the mlh1 rad18 strain (AID 175)
Conditions: S. cerevisiae mlh1 rad18 strain growth inhibition; at 50.0 µM
Compounds without any hit were thinned out: in the full panel of roughly 79,000, 15% have a hit. The source made the active and inactive calls. Rule as the data show it: active = growth inhibition above about 70%; inactive = the rest.
A correct response names exactly one class from active, inactive

Illustrative cases are given below, each with its answer.
[
  {
    "Molecule": "CCCCCCCN=C(N)c1ccc(C(=O)OC2CCCCC2)cc1",
    "Category Label": "active"
  },
  {
    "Molecule": "O=C(O)C(S(=O)(=O)O)S(=O)(=O)O",
    "Category Label": "active"
  },
  {
    "Molecule": "NC(=Nc1cc2ccccc2c2ccccc12)Nc1cc2ccccc2c2ccccc12",
    "Category Label": "active"
  },
  {
    "Molecule": "CC(=O)Oc1ccc(N=[N+]([O-])c2ccc(OC(C)=O)cc2)cc1",
    "Category Label": "inactive"
  },
  {
    "Molecule": "CCCCCC(C)(O)C#CC(C)(O)CCCCC (configuration not stated)",
    "Category Label": "inactive"
  }
]

Please share the test call associated with CCN(CC)CCNc1c(OC)cc(C)c2sc3ccccc3c(=O)c12 . active

Please share the test call associated with C=C1CC(C)(COc2ccc3c(C)c(Cl)c(=O)oc3c2)OC1=O (configuration not stated) . inactive

Please share the test call associated with Cc1ccccc1C1c2c(C)cccc2C(=O)CC1CC(=O)O (configuration not stated) . active

Please share the test call associated with CC(C)(C)OC(=O)Nc1cccc(Cl)c1 . active

Please share the test call associated with COc1cc2c(cc1OC)C(=O)C(C)(c1ccccc1)NC2 (configuration not stated) . active

Please share the test call associated with CCC[C@H]1[C@H](CCC)[C@@]2(OC(=O)C3=C2CCC=C3)[C@]12OC(=O)C1=C2CCC=C1 . active

Please share the test call associated with O=C1NC(=S)S/C1=C\c1cc(Cl)ccc1O . inactive

----------
Assay: NCI Yeast Anticancer Drug Screen. Data for the sgs1 mgt1 strain (AID 161);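 also: 0% = growth of cultures given vehicle only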
Conditions: S. cerevisiae sgs1 mgt1 strain, at 50.0 µM (retest, dose inferred, filed as 5.0)
About 79,000 compounds went through this panel and 15% of them were active in at least one assay; those are over-represented in the sample as a whole. Calls of active or inactive are those of the source. Rule as the data show it: active = growth inhibition above about 70%; inactive = the rest.
A correct response names exactly one class from 1 for active, -1 for inactive

[
  {
    "Compound": "OC1CCN(c2c3ccccc3nc3ccccc23)CC1",
    "Category Label": 1
  },
  {
    "Compound": "CN1C/C(=C\\c2ccccc2)C(=O)/C(=C/c2ccccc2)C1",
    "Category Label": 1
  },
  {
    "Compound": "COC(=O)[C@@H](O)[C@]1(C(=O)OC)C2O[C@@H](OC)[C@@H]1CCCCCC[C@H]2O",
    "Category Label": -1
  },
  {
    "Compound": "CCCCN(CCO)CC(O)Cn1cnc2c(N)ncnc21 (stereo unspecified) (tested in a mixture with another compound)",
    "Category Label": -1
  },
  {
    "Compound": "CCOC(=O)CNC(=O)CNC(=O)CNC(c1ccccc1)(c1ccccc1)c1ccccc1",
    "Category Label": 1
  }
]

Please share the test call associated with CN(C)c1ccc(N=Nc2ccc3c4c(cccc24)-c2ccccc2-3)cc1 . 1

Please share the test call associated with Nc1ccc(-c2cccc(-c3ccccc3)c2)cc1 . 1

Please share the test call associated with CC(C)(C[NH-])C[NH-].[Cl][Pt+2]([Cl])([Cl])[Cl] . 1

Please share the test call associated with N#Cc1ccccc1NC1OCC(O)C(O)C1O (stereo unspecified) . -1

Please share the test call associated with O=C1CSC(=S)N1Cc1ccccc1Cl . 1

----------
Experiment: NCI Yeast Anticancer Drug Screen. Data for the mlh1 rad18 strain (AID 175)
Settings: S. cerevisiae mlh1 rad18 strain growth inhibition; at 50.0 µM (retest, dose inferred, filed as 5.0); active compounds read high
Experimental: Growth inhibition of yeast strains with defined genetic alterations is measured as a screen for potential anti-cancer activity. Selected strains with alterations in DNA damage repair or cell cycle control were exposed to compounds and growth inhibition was measured relative to vehicle treated controls. The strain used in this assay is mlh1 rad18
The panel holds about 79,000 compounds, 15% with a hit somewhere; the sample as a whole holds those more often. The source made the active and inactive calls. Cut-off read from the data, not from the text of the source: active = growth inhibition above about 70%; inactive = the rest.
# growth inhibition listing for each entry below

Worked examples, 5 compounds total:
[
  {
    "Compound": "C/C(=N/NC(=S)Nc1ccccc1Cl)c1ccccn1",
    "Observation Type": "growth inhibition",
    "Obs Value": "20% (inactive)"
  },
  {
    "Compound": "CC(=O)N1c2ccccc2Sc2ccc(C(=O)CCl)cc21",
    "Observation Type": "growth inhibition",
    "Obs Value": "94% (active)"
  },
  {
    "Compound": "O=C1c2ccccc2C(O)(c2ccccc2)c2c(Cl)cccc21 (stereo unspecified)",
    "Observation Type": "growth inhibition",
    "Obs Value": "41% (inactive)"
  },
  {
    "Compound": "O=[N+]([O-])/C=C/c1c[nH]c2c1ccc1ccccc12",
    "Observation Type": "growth inhibition",
    "Obs Value": "94% (active)"
  },
  {
    "Compound": "Cc1cccc2c1Oc1cc(Cl)ccc1C2NC(=O)CCN1CCN(CCO)CC1 (stereo unspecified)",
    "Observation Type": "growth inhibition",
    "Obs Value": "29% (inactive)"
  }
]

Noted for CN(C)CCCN=c1c2ccccc2n(O)c2ccccc12 : its growth inhibition reads -16% (inactive)

----------
Assay: NCI Yeast Anticancer Drug Screen. Data for the mlh1 rad18 strain (AID 175)
Details: S. cerevisiae mlh1 rad18 strain growth inhibition; at 50.0 µM (retest, dose inferred, filed as 5.0); active compounds read high
About 79,000 compounds went through this panel and 15% of them were active in at least one assay; those are over-represented in the sample as a whole.
Assign MET whenever growth inhibition does not fall below 40%; assign NOT MET whenever it does.

[
  {
    "Compound": "COc1ccc(-c2cc(-c3ccco3)c(C#N)c(=S)n2C2OC(CO)C(O)C(O)C2O)cc1 (stereo unspecified)",
    "Category Label": "NOT MET"
  },
  {
    "Compound": "CC1(C)CC(=O)C(c2ccccc2[N+](=O)[O-])=C(O)C1",
    "Category Label": "NOT MET"
  },
  {
    "Compound": "CC(C)(C)CC(C)(C)c1ccc(O)cc1O",
    "Category Label": "MET"
  },
  {
    "Compound": "CC(=O)OCC1OC(N2CCc3cc([N+](=O)[O-])ccc32)C(OC(C)=O)C(OC(C)=O)C1OC(C)=O (stereo unspecified)",
    "Category Label": "NOT MET"
  }
]

Textbook exercise: given the entry O=C1/C(=C/c2ccc(Cl)cc2)CSC/C1=C\c1ccc(Cl)cc1 , state whether its growth inhibition is greater than or equal to 40%. MET

----------
Assay: NCI Yeast Anticancer Drug Screen. Data for the sgs1 mgt1 strain (AID 161);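 also: 0% = growth of cultures given vehicle only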
Conditions: S. cerevisiae sgs1 mgt1 strain, at 50.0 µM
This is part of a sample that, as a whole, favours compounds with a hit. Of some 79,000 tested, about 15% had one in any assay. Calls of active or inactive are those of the source. Rule as the data show it: active = growth inhibition above about 70%; inactive = the rest.
A correct response names exactly one class from active, inactive

Illustrative cases are given below, each with its answer.
[
  {
    "Compound": "COC(=O)C1=CCC[C@H]2C1(C)CCC(C)C21CC(c2ccoc2)OC1=O (some centres undefined)",
    "Category Label": "active"
  },
  {
    "Compound": "CCOC(=O)CC(=O)/C=C/c1ccncc1",
    "Category Label": "inactive"
  },
  {
    "Compound": "CC(C)(C)c1cc2c(c(C(C)(C)C)c1O)CC(=O)O2",
    "Category Label": "inactive"
  },
  {
    "Compound": "C=CCOCC(C)OC(=O)C(C)C (centres undefined)",
    "Category Label": "inactive"
  },
  {
    "Compound": "Cc1ccc2c(c1)-c1c(c3c(c4c1-c1cc(C)ccc1CC4)C(=O)OC3=O)CC2",
    "Category Label": "inactive"
  },
  {
    "Compound": "COc1ccc(-c2cc(-c3ccco3)c(C#N)c(=S)n2C2OC(CO)C(O)C(O)C2O)cc1 (centres undefined)",
    "Category Label": "inactive"
  }
]

Please share the test call associated with Cc1cc(NC(=S)SC(C)C)ccc1Br . active

Please share the test call associated with NC(=O)c1ccc[n+](CC(=O)Nc2ccc(Cl)cc2)c1 . inactive

Please share the test call associated with CN(C)c1ccc(/C=C(/NC(=O)c2ccccc2)c2nc3ccc(Cl)cc3[nH]2)cc1 . inactive

Please share the test call associated with Nc1cc(F)c2c(c1F)C(=O)c1cc(F)ccc1-2 . inactive

Please share the test call associated with CC1=NN(c2ccccc2)C(=O)C12[C@H](c1ccccc1)C2(C#N)C#N (some centres undefined) . active

Please share the test call associated with O=C(CC(=O)c1ccccc1NC1=Cc2ccccc2C(=O)C1=O)C(=O)NC1=C(Cl)C(=O)c2ccccc2C1=O . active

Please share the test call associated with N#CNc1nc(N)c(-c2ccc(Cl)cc2)c(C(=O)Nc2ccc(Cl)c(Cl)c2)n1 . inactive

Please share the test call associated with CCCCCCCCCCSC(=NCC)NCC . inactive

Please share the test call associated with O=Cc1[nH]c(=S)[nH]c(=O)c1CCCc1ccccc1 . active

Please share the test call associated with CN(C)Cc1ccc2c(c1)c1c(n2Cc2ccccc2)CCCC1 . active

Please share the test call associated with O=C1C=CC(=Nc2cccc3c2-c2ccccc2C3)O1 . active

Please share the test call associated with COC1OC(CBr)C(OC(c2ccccc2)(c2ccccc2)c2ccccc2)C(OC(c2ccccc2)(c2ccccc2)c2ccccc2)C1OC(c1ccccc1)(c1ccccc1)c1ccccc1 (centres undefined) . active

Please share the test call associated with Cc1cc2ccccc2c[n+]1Cc1ccc2ccccc2n1 . inactive

Please share the test call associated with CC(O)CCCOC(c1ccccc1)(c1ccccc1)c1ccccc1 (centres undefined) . active

Please share the test call associated with COc1ccc2c(c1)nc1ccc(Cl)cc1[n+]2C . active

Please share the test call associated with CC(=O)/C(=C\c1ccco1)C(=O)Nc1ccccc1 . active

Please share the test call associated with N#CCCN(C(=S)Nc1cccc(C(F)(F)F)c1)C1CCCCC1 . active

Please share the test call associated with Cc1ccc(S(=O)(=O)C(Br)CC(=O)c2ccccc2)cc1 (centres undefined) . active

Hello, the source for this data is PubChem BioAssay (NCI), in case you need it.
